Test system: HeLa
Test: Resistance index, ratio of IC50 for human HeLa cells expressing wild type beta3 tubulin to IC50 for human HeLa cells
Assay type: functional
One threshold, 1, splits the recorded Ratio IC50 values: lower ones are y, equal or higher ones are n.

COMPOUND | ANSWER_LABEL
CCOC(=O)c1[nH]c(Cl)c(-c2ccc(OC)c(OC)c2OC)c1Cl | n
CCOC(=O)c1[nH]c(/C=N/O)c(-c2ccc(OC)c(OC)c2OC)c1Br | n
CCOC(=O)c1[nH]c(C#N)c(-c2ccc(OC)c(OC)c2OC)c1Br | n
CCOC(=O)c1[nH]c(C=NO)c(-c2ccc(OC)c(OC)c2OC)c1Br (mixture of isomers) | y

Input line: Say whether its Ratio IC50 is strictly beneath 1. Entry: `CCOC(=O)c1[nH]c(Br)c(-c2ccc(OC)c(OC)c2OC)c1Br`
Output line: n

Input line: Say whether its Ratio IC50 is strictly beneath 1. Entry: `CCOC(=O)c1[nH]c(/C=N\O)c(-c2ccc(OC)c(OC)c2OC)c1Br`
Output line: n

----------
Test system: SK-OV-3
Assay: Antiproliferative activity against human SKOV3 cells after 48 hrs by SRB assay
Assay type: functional, cell-based
Conditions: SK-OV-3, 48 h
OUTCOME_MEASURE: pIC50
Please note pIC50 is a logarithmic value: minus log10 of concentration in mol/L. Answer with that number alone.

MOLECULE | OUTCOME_MEASURE | NUMERIC_READOUT
CCOC(=O)c1[nH]c(Br)c(-c2ccc(OC)c(OC)c2OC)c1Br | pIC50 | 7.82
CCOC(=O)c1[nH]c(/C=N/O)c(-c2ccc(OC)c(OC)c2OC)c1Br | pIC50 | 7.64
CCOC(=O)c1[nH]c(C#N)c(-c2ccc(OC)c(OC)c2OC)c1Br | pIC50 | 7.58
CCOC(=O)c1[nH]c(Cl)c(-c2ccc(OC)c(OC)c2OC)c1Cl | pIC50 | 6.68
CCOC(=O)c1[nH]c(/C=N\O)c(-c2ccc(OC)c(OC)c2OC)c1Br | pIC50 | 7.47

Proceed to the following item.
Input line: Let me know recorded pIC50 for CCOC(=O)c1[nH]c(C=NO)c(-c2ccc(OC)c(OC)c2OC)c1Br (mixture of isomers) , thanks.
Output line: 8.28

All figures here come from ChEMBL document CHEMBL4033654.
